Taken from patent US6635641B2.

Known pKi of a selection of compounds
Target: phosphorylated VEGF-R2Δ50 (FLVK-P) (Homo sapiens, UniProt P35968, DEL940-989/E990V)
Construct: VEGF-R2Δ50 contains residues 806-939 and 990-1171; made in house; host or cells: baculovirus/insect cells
Sequence (P35968 with tags, fused parts or gaps DEL940-989/E990V limits assumed): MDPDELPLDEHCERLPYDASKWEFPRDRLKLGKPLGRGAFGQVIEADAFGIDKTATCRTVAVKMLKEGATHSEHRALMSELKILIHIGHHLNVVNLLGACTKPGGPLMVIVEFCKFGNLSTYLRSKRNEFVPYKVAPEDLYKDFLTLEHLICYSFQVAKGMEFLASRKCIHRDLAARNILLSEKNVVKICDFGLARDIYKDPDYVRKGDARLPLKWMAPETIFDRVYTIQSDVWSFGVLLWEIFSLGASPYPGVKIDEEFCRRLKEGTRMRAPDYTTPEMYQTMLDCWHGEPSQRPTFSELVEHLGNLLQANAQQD
Assay: VEGF-R2 coupled spectrophotometric assay, phosphorylated construct (FLVK-P)
Format: biochemical
pKi: −log10 of the molar value. Counter-ions that a name gives are not always drawn.

>  <compound>
Cc1cc(NC(=O)c2cc(CCc3cncc4ccccc34)ccc2F)ccc1C(C)C [Example T-1]

>  <system_name>
phosphorylated VEGF-R2Δ50 (FLVK-P) (Homo sapiens, UniProt P35968, DEL940-989/E990V)

>  <pKi>
7.87

$$$$
>  <compound>
O=C(Nc1cccc(S(=O)(=O)C(F)(F)F)c1)c1cccc(CSc2ncnc3[nH]ncc23)c1 [Example B-24]

>  <system_name>
phosphorylated VEGF-R2Δ50 (FLVK-P) (Homo sapiens, UniProt P35968, DEL940-989/E990V)

>  <pKi>
7.43

$$$$
>  <compound>
O=C(Nc1cc(C(F)(F)F)cc(C(F)(F)F)c1)c1cccc(CSc2ncnc3[nH]ncc23)c1 [Example B-17]

>  <system_name>
phosphorylated VEGF-R2Δ50 (FLVK-P) (Homo sapiens, UniProt P35968, DEL940-989/E990V)

>  <pKi>
8.16

$$$$
>  <compound>
COc1cc(NC(=O)c2cccc(OCc3cncc4ccccc34)c2)cc(OC)c1OC [Example K-2, hydrochloride]

>  <system_name>
phosphorylated VEGF-R2Δ50 (FLVK-P) (Homo sapiens, UniProt P35968, DEL940-989/E990V)

>  <pKi>
6.86

$$$$
>  <compound>
Cc1ccc2cc(NC(=O)c3cccc(SCc4cccnc4)c3)ccc2n1 [Example D-3, dihydrochloride]

>  <system_name>
phosphorylated VEGF-R2Δ50 (FLVK-P) (Homo sapiens, UniProt P35968, DEL940-989/E990V)

>  <pKi>
6.88

$$$$
>  <compound>
Cc1c(Br)cc(NC(=O)c2cccc(OCc3cncc4ccccc34)c2)cc1Br [Example R-2]

>  <system_name>
phosphorylated VEGF-R2Δ50 (FLVK-P) (Homo sapiens, UniProt P35968, DEL940-989/E990V)

>  <pKi>
8.60

$$$$
>  <compound>
O=C(Nc1ccc2ncccc2c1)c1cccc(OCc2cccnc2)c1 [Example K-8]

>  <system_name>
phosphorylated VEGF-R2Δ50 (FLVK-P) (Homo sapiens, UniProt P35968, DEL940-989/E990V)

>  <pKi>
6.15

$$$$
>  <compound>
Cc1c(Br)cc(NC(=O)c2cccc(CCc3cncc4ccccc34)c2)cc1Br [Example S-5]

>  <system_name>
phosphorylated VEGF-R2Δ50 (FLVK-P) (Homo sapiens, UniProt P35968, DEL940-989/E990V)

>  <pKi>
8.38

$$$$
>  <compound>
COc1ccc(Nc2cc(CCc3cccc(C(=O)Nc4ccc(N5CCCC5)c(C(F)(F)F)c4)c3)[nH]n2)cn1 [Example G-8]

>  <system_name>
phosphorylated VEGF-R2Δ50 (FLVK-P) (Homo sapiens, UniProt P35968, DEL940-989/E990V)

>  <pKi>
9.14

$$$$
>  <compound>
O=C(NCc1ccncc1)c1cccc(CSc2ncnc3[nH]ncc23)c1 [Example B-5]

>  <system_name>
phosphorylated VEGF-R2Δ50 (FLVK-P) (Homo sapiens, UniProt P35968, DEL940-989/E990V)

>  <pKi>
4.96

$$$$
>  <compound>
Cc1cc(C)c2cc(NC(=O)c3cccc(OCc4cncc5ccccc45)c3)ccc2n1 [Example R-5]

>  <system_name>
phosphorylated VEGF-R2Δ50 (FLVK-P) (Homo sapiens, UniProt P35968, DEL940-989/E990V)

>  <pKi>
7.95

$$$$
>  <compound>
Cc1ccc2cc(NC(=O)c3cccc(OCc4cncc5ccccc45)c3)ccc2n1 [Example K-3, hydrochloride]

>  <system_name>
phosphorylated VEGF-R2Δ50 (FLVK-P) (Homo sapiens, UniProt P35968, DEL940-989/E990V)

>  <pKi>
8.78

$$$$
>  <compound>
Cc1ccc2cc(NC(=O)c3cccc(OCc4ccc(N)nc4)c3)ccc2n1 [Example M-1]

>  <system_name>
phosphorylated VEGF-R2Δ50 (FLVK-P) (Homo sapiens, UniProt P35968, DEL940-989/E990V)

>  <pKi>
7.28

$$$$
>  <compound>
O=C(Nc1cccc(CSc2ncnc3[nH]ncc23)c1)c1cc(C(F)(F)F)cc(C(F)(F)F)c1 [Example V-2]

>  <system_name>
phosphorylated VEGF-R2Δ50 (FLVK-P) (Homo sapiens, UniProt P35968, DEL940-989/E990V)

>  <pKi>
7.89

$$$$
>  <compound>
Cc1ccc2cc(NC(=O)c3cccc(SCc4cc(Nc5ccccc5)n[nH]4)c3)ccc2n1 [Example E-1]

>  <system_name>
phosphorylated VEGF-R2Δ50 (FLVK-P) (Homo sapiens, UniProt P35968, DEL940-989/E990V)

>  <pKi>
8.66

$$$$
>  <compound>
Cc1ccc2cc(NC(=O)c3cccc(CSc4cnccn4)c3)ccc2n1 [Example A-6]

>  <system_name>
phosphorylated VEGF-R2Δ50 (FLVK-P) (Homo sapiens, UniProt P35968, DEL940-989/E990V)

>  <pKi>
5.98

$$$$
>  <compound>
CC(C)c1cccc(NC(=O)c2cccc(CSc3cnccn3)c2)c1 [Example A-7]

>  <system_name>
phosphorylated VEGF-R2Δ50 (FLVK-P) (Homo sapiens, UniProt P35968, DEL940-989/E990V)

>  <pKi>
7.59

$$$$
>  <compound>
O=C(Nc1ccc2ccccc2c1)c1cccc(OCc2cccnc2)c1 [Example K-6]

>  <system_name>
phosphorylated VEGF-R2Δ50 (FLVK-P) (Homo sapiens, UniProt P35968, DEL940-989/E990V)

>  <pKi>
6.70

$$$$
>  <compound>
O=C(Nc1ccc(N2CCCC2)c(C(F)(F)F)c1)c1cccc(CCc2cc(Nc3cccnc3)n[nH]2)c1 [Example G-11]

>  <system_name>
phosphorylated VEGF-R2Δ50 (FLVK-P) (Homo sapiens, UniProt P35968, DEL940-989/E990V)

>  <pKi>
9.77

$$$$
>  <compound>
Cc1cc(NC(=O)c2cccc(SCc3cnccn3)c2)ccc1C(C)C [Example D-1]

>  <system_name>
phosphorylated VEGF-R2Δ50 (FLVK-P) (Homo sapiens, UniProt P35968, DEL940-989/E990V)

>  <pKi>
7.55

$$$$
>  <compound>
COc1cc(NC(=O)c2cccc(SCc3cc(Nc4ccccc4)n[nH]3)c2)cc(OC)c1OC [Example E-2]

>  <system_name>
phosphorylated VEGF-R2Δ50 (FLVK-P) (Homo sapiens, UniProt P35968, DEL940-989/E990V)

>  <pKi>
8.32

$$$$
>  <compound>
COc1cc(NC(=O)c2cccc(CSc3ncnc4[nH]ncc34)c2)cc(OC)c1OC [Example B-1]

>  <system_name>
phosphorylated VEGF-R2Δ50 (FLVK-P) (Homo sapiens, UniProt P35968, DEL940-989/E990V)

>  <pKi>
6.95

$$$$
>  <compound>
COc1ccccc1CNC(=O)c1cccc(CSc2ncnc3[nH]ncc23)c1 [Example B-7]

>  <system_name>
phosphorylated VEGF-R2Δ50 (FLVK-P) (Homo sapiens, UniProt P35968, DEL940-989/E990V)

>  <pKi>
5.48

$$$$
>  <compound>
Cc1cc(NC(=O)c2cccc(CSc3ncnc4[nH]ncc34)c2)no1 [Example B-4]

>  <system_name>
phosphorylated VEGF-R2Δ50 (FLVK-P) (Homo sapiens, UniProt P35968, DEL940-989/E990V)

>  <pKi>
4.46

$$$$
>  <compound>
Cc1cc(NC(=O)c2cccc(CSc3cnccn3)c2)ccc1C(C)C [Example A-3]

>  <system_name>
phosphorylated VEGF-R2Δ50 (FLVK-P) (Homo sapiens, UniProt P35968, DEL940-989/E990V)

>  <pKi>
7.49

$$$$
